All figures here come from paper PMC8943889.

# Tested on: A. baumannii 2018-006
# Format: cell-based
# Cond: 2018-006, 16 h
Positions of bridges follow the written chain, without caps; N, C: chain ends. Non-standard residues stand in square brackets, D forms with d. Residues, ends and D or L forms follow the SMILES beside them. *: point of attachment. Octanoyl(7-Me) = CC(C)CCCCCC(=O)*; dOrn = NCCC[C@@H](N)C(=O)O; Orn = NCCC[C@H](N)C(=O)O
Field: MIC. Provide a value for each of the compounds that follow.
Just the number in µg/mL, nothing appended.

Reported MIC, compound CC[C@H](C)[C@@H]1NC(=O)[C@@H](NC(=O)[C@H](Cc2c[nH]c3ccccc23)NC(=O)[C@@H](CCCN)NC(=O)CNC(=O)[C@H](CCCN)NC(=O)[C@@H](CCCN)NC(=O)[C@@H](Cc2c[nH]c3ccccc23)NC(=O)[C@@H](Cc2ccc(O)cc2)NC(=O)[C@@H](CO)NC(=O)CCCCCC(C)C)COC(=O)CNC(=O)CNC(=O)[C@H](CC(N)=O)NC1=O [Ser9-Lat (4), Ser9-Laterocidine] ({Octanoyl(7-Me)}-[dS][dY][dW][dOrn][Orn]G[dOrn]WSINGG; ester 9-C) : ____ 4

Now the compound CCC(C)CCC(=O)N[C@H](CC(N)=O)C(=O)N[C@H](Cc1ccc(O)cc1)C(=O)N[C@H](Cc1c[nH]c2ccccc12)C(=O)N[C@H](CCCN)C(=O)N[C@@H](CCCN)C(=O)NCC(=O)N[C@H](CCCN)C(=O)N[C@@H](Cc1c[nH]c2ccccc12)C(=O)N[C@@H]1C(=O)N[C@@H]([C@@H](C)CC)C(=O)NCC(=O)N[C@@H](CO)C(=O)N[C@@H]1C (stereo partly drawn) 16

Now the compound CC[C@H](C)[C@@H]1NC(=O)[C@@H](NC(=O)[C@H](Cc2c[nH]c3ccccc23)NC(=O)[C@@H](CCCN)NC(=O)CNC(=O)[C@H](CCCN)NC(=O)[C@@H](CCCN)NC(=O)[C@@H](Cc2c[nH]c3ccccc23)NC(=O)[C@@H](Cc2ccc(O)cc2)NC(=O)[C@@H](CO)NC(=O)CCCCCC(C)C)[C@@H](C)OC(=O)CNC(=O)CNC(=O)[C@H](CC(N)=O)NC1=O 2
